# protocol: in vivo
# test.conditions: male, C57BL/6, mouse, inhaled or intranasal, 10 mg/kg
property.measured: AUC(0-t) (ng·h/mL)
Give the value, in units of ng·h/mL, as a plain number.

Req: Field request: AUC(0-t) | item: COc1cc(C(=O)O[C@@H]2Cc3c(O)cc(O)cc3O[C@H]2c2cc(O)c(O)c(O)c2)c(F)c(O)c1O [Compound 68]
Resp: 702

---

# protocol: in vivo
# test.conditions: male, C57BL/6, mouse, po, 30 mg/kg
property.measured: AUC(0-inf) (µg·h/mL)
Give the value, in units of µg·h/mL, as a plain number.

Req: Field request: AUC(0-inf) | item: COc1cc(C(=O)O[C@@H]2Cc3c(O)cc(O)cc3O[C@H]2c2cc(O)c(O)c(O)c2)c(F)c(O)c1O
Resp: 0.092

---

# protocol: in vivo
# test.conditions: male, C57BL/6, mouse, inhaled or intranasal, 10 mg/kg
property.measured: bioavailability

Req: Field request: bioavailability | item: COc1cc(C(=O)O[C@@H]2Cc3c(O)cc(O)cc3O[C@H]2c2cc(O)c(O)c(O)c2)c(F)c(O)c1O [Compound 68]
Resp: > 100%

---

# protocol: in vivo
# test.conditions: male, C57BL/6, mouse, inhaled or intranasal, 10 mg/kg
property.measured: CL/F (mL/min/kg)
Give the value, in units of mL/min/kg, as a plain number.

Req: Field request: CL/F | item: COc1cc(C(=O)O[C@@H]2Cc3c(O)cc(O)cc3O[C@H]2c2cc(O)c(O)c(O)c2)c(F)c(O)c1O [Compound 68]
Resp: 240

---

# protocol: in vivo
# test.conditions: male, C57BL/6, mouse, po, 30 mg/kg
property.measured: bioavailability
Please make sure the unit comes right after the number.

Req: Field request: bioavailability | item: COc1cc(C(=O)O[C@@H]2Cc3c(O)cc(O)cc3O[C@H]2c2cc(O)c(O)c(O)c2)c(F)c(O)c1O
Resp: 4%

---

# protocol: in vivo
# test.conditions: male, C57BL/6, mouse, po, 30 mg/kg
property.measured: CL/F (mL/min/kg)
Give the value, in units of mL/min/kg, as a plain number.

Req: Field request: CL/F | item: COc1cc(C(=O)O[C@@H]2Cc3c(O)cc(O)cc3O[C@H]2c2cc(O)c(O)c(O)c2)c(F)c(O)c1O [Compound 68]
Resp: 100

---

# experimental.target: DYRK1B (GST tagged full length human DYRK1B isoform p65) (Homo sapiens (Human))
# Sequence (Q9Y463 other isoform, or with tags, fused parts or gaps): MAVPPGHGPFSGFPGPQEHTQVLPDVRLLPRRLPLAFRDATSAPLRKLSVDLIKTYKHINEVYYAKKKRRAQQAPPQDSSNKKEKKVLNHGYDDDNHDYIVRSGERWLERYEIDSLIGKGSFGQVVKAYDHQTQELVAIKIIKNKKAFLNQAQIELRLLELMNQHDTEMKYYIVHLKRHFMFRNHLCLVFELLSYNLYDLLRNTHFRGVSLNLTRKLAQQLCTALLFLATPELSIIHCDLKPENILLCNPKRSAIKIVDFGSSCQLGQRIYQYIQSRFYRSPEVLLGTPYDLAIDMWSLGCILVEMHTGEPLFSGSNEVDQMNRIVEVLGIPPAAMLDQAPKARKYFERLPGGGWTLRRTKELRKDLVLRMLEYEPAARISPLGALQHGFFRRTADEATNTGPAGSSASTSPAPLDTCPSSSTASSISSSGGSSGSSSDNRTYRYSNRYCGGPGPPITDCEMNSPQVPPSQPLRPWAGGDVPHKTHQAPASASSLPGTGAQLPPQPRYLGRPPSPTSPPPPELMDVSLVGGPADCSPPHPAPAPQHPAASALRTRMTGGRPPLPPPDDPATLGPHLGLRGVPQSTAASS
# protocol: DYRK1B ELISA assay
# test.conditions: 70 ng GST-DYRK1B, kinase reaction time 60 min
Some molecules, each annotated with its measured IC50.

Below, each entry is followed by its recorded IC50 result.
Req: Field request: IC50 | item: O=C(O[C@@H]1Cc2c(O)cc(O)cc2O[C@H]1c1cc(O)c(O)c(O)c1)c1c(F)c(O)c(O)c(O)c1F
Resp: < 100 nM

Req: Field request: IC50 | item: O=C(O[C@@H]1Cc2c(O)cc(O)cc2O[C@H]1c1cc(O)c(O)c(O)c1)c1cc(O)c(O)c(O)c1F
Resp: < 100 nM

Req: Field request: IC50 | item: O=C(O[C@@H]1Cc2c(O)cc(O)cc2O[C@H]1c1ccc(O)c(O)c1)c1cc(O)c(O)c(O)c1F
Resp: > 100 nM

New cases:
Req: Field request: IC50 | item: COc1cc(C(=O)O[C@@H]2Cc3c(O)cc(O)cc3O[C@H]2c2cc(O)c(O)c(O)c2)c(F)c(O)c1O
Resp: < 100 nM
